In this section, each of the molecules is paired with its reported melting point.
Structures can show the parent of a compound that is named as a salt.

Field: example entries. Status: answers known.
> print(dat)
                                   molecule   measure.name         result
1  c1ccc(OCCCCCN2CCCCCC2)cc1 (as salt: oxalate) [Example 5, N-(5-phenoxypentyl)-hexamethyleneimine]  melting point  132 to 134 °C
2  c1ccc(Oc2ccc(OCCCCCN3CCCC3)cc2)cc1 (as salt: oxalate) [Example 48]  melting point  135 to 136 °C
3  CCC(=NO)c1ccc(OCCCN2CCC(C)CC2)cc1 (as salt: oxalate) [Example 107]  melting point  157 to 160 °C
4  C[C@@H]1C[C@H](C)CN(CCCCCOc2ccccc2)C1 (as salt: oxalate) [Example 13]  melting point  154 to 155 °C

Let us examine a further case.
Q. Quick check: melting point of CN(C)CCCCCOc1ccc(C#N)cc1 (as salt: oxalate) [Example 53] ?
A. 148 to 149 °C

----------
Where a name gives a salt, the structure may show the parent alone.
melting point values by entry

Q. Would you kindly share the measured melting point for COC(=O)c1ccc(OCCCN2CCCCC2)cc1 (as salt: oxalate) [Example 103] ?
A. 156 to 158 °C

Q. Follow-up item: CC(=O)c1ccc(OCCCN2C[C@@H](C)C[C@H](C)C2)cc1 (stereo in doubt) (as salt: oxalate) [Example 67]
A. 171 to 172 °C

Q. Next molecule up: CN(C)S(=O)(=O)c1ccc(OCCCN2CCCCC2)cc1 (as salt: oxalate) [Example 110]
A. 149 to 153 °C

Q. Entry to check: CCN(CC)CCCOc1ccc([N+](=O)[O-])cc1 (as salt: oxalate) [Example 42]
A. 160 to 161 °C

Q. Query c1ccc(OCCCCN2CCCC2)cc1 (as salt: oxalate) [Example 31, 1-(4-phenoxybutyl)-pyrrolidine] next
A. 143 to 144 °C

Q. Please answer likewise for O=Cc1ccc(OCCCN2CCCCC2)cc1 (as salt: oxalate) [Example 71]
A. 152 to 153 °C

Q. Try this molecule next: CC(=O)CCc1ccc(OCCCN2CCCCC2)cc1.Cl
A. 148 to 150 °C

Q. Next up: CCC(=O)c1ccc(OCCCN2CCC(C)CC2)cc1 (as salt: oxalate) [Example 94]
A. 163 to 165 °C

----------
Catalogue of compounds with associated melting point
Structures can show the parent of a compound that is named as a salt.

Sample records with melting point:
> print(dat)
                                   compound   measure.name         result
1  CC(O)c1ccc(OCCCCCN2CCCC2)cc1 (centres unmarked) (as salt: oxalate)  melting point  102 to 104 °C
2  CCN(CC)CCCCOc1ccc(C#N)cc1 (as salt: oxalate)  melting point  143 to 145 °C
3  CC(=O)c1ccc(OCCCN2CCCCC2)cc1 (as salt: oxalate)  melting point  159 to 160 °C
4  O=C(c1ccc(OCCCN2CCCCC2)cc1)C1CCCC1 (as salt: oxalate)  melting point  143 to 145 °C
5  c1ccc(SCCCCN2CCCC2)cc1 (as salt: oxalate)  melting point  114 to 116 °C
6  C[C@H]1C[C@H](C)CN(CCCOc2ccc(C(=O)C3CC3)cc2)C1 (relative stereo) (as salt: oxalate)  melting point  136 to 138 °C
7  CC1CCCCN1CCCOc1ccc(C#N)cc1 (centres unmarked) (as salt: hydrochloride)  melting point  151 to 153 °C

Turning to the following compound.
Q. I would be grateful if you could share the reported melting point for CC1CCCCN1CCCOc1ccc(C#N)cc1.Cl (centres unmarked) .
A. 177 to 180 °C
